study_system: chimeric receptor having the extra-cellular domain of EGF-R and the intra-cellular domain of Her2 (Homo sapiens, UniProt P04626)
Construct: fused on or other part: the same chimera
Sequence (P04626 676-1255 limits assumed, change not shown): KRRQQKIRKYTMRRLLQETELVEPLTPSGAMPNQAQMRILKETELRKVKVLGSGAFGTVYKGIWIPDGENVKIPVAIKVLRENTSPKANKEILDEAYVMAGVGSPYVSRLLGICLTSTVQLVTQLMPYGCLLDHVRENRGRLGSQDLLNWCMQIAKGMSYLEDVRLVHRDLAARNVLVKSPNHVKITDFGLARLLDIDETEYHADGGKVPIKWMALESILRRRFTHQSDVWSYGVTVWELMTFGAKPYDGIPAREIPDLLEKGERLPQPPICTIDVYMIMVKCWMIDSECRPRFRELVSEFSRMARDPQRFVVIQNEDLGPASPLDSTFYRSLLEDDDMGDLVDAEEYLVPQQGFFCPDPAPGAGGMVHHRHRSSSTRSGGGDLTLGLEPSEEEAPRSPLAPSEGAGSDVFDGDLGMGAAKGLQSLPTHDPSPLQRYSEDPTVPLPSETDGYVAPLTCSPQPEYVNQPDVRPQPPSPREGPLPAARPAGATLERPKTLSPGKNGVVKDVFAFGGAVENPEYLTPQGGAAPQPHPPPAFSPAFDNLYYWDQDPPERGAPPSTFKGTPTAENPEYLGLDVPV
method: EGF-induced Her2-driven BrdU incorporation
assay_context: read-out: BrdU HER 2 driven IC50

| compound | IC50 |
| --- | --- |
| COc1ccc(/C=C2/C(=O)Nc3ccc(F)cc32)cc1C1CCCC1 | 9.3 µM |
| COc1ccc(C=C2C(=O)Nc3ccccc32)cc1-c1cccc(NC(C)=O)c1 | 8.1 µM |
| COc1cc(C)c(/C=C2/C(=O)Nc3ccc(F)cc32)cc1C(C)C | 8.1 µM |
| CC1(C)CCc2cc(C=C3C(=O)Nc4ccc(Br)cc43)ccc2O1 (racemic) | 3.5 µM |
| COc1cc(C)c(C=C2C(=O)Nc3ccccc32)cc1C(C)C | 33.4 µM |
